Experiment: Pharmacokinetic evaluation in rats after intravenous injection and oral administration
Format: in vivo
Settings: rat, plasma, IV 2 mg/kg, read-out: PK AUClast
propertyLabel: AUC(0-t) (ng·h/mL)
Kindly provide the numeric value in ng·h/mL only, without the unit symbol.

Query string: What AUC(0-t) value was documented for this compound, CC(=O)Nc1cc2c(-c3cc(OCCC(C)(C)O)c4c(n3)C3(CCOC3)OCC4)cn(C)c2cn1 (stereo not shown) ?
Result string: 494

====

Assay: Pharmacokinetic evaluation in rats after intravenous injection and oral administration
Type: in vivo
Settings: rat, plasma, IV 2 mg/kg, read-out: PK T½ (converted)
propertyLabel: half-life (h)
Write it as a number; the unit h goes unstated.

Query string: Any idea what its half-life is? The molecule is CC(=O)Nc1cc2c(-c3cc(OCCC(C)(C)O)c4c(n3)C3(CCOC3)OCC4)cn(C)c2cn1 (stereo not shown) [Example 26]
Result string: 1.65

====

Test: Pharmacokinetic evaluation in rats after intravenous injection and oral administration
Format: in vivo
Settings: rat, plasma, IV 1 mg/kg, read-out: PK Cmax
propertyLabel: Cmax (ng/mL)
Answer with a number only, understood to be in ng/mL.

Query string: Recorded Cmax of CC(=O)Nc1cc2c(-c3ccc4c(n3)C3(CCOC3)OC4)cn(C)c2cn1 (centres unmarked) , please.
Result string: 1010

Query string: Please answer likewise for COc1cc(-c2cn(C)c3cnc(NC(C)=O)cc23)nc2c1COC21CCOC1 (centres unmarked)
Result string: 1170

====

Assay: Stability in rat liver microsomes
Format: in vitro ADME
Settings: rat, pH 7.4, read-out: Rat T½
Kindly supply the reported half-life values for the records listed here.

Query string: Need half-life of COc1cc(-c2cn(C)c3cnc(NC(C)=O)cc23)nc2c1COC21CCOC1 (centres unmarked) , thanks.
Result string: 2.56 h

Query string: One more compound: CC(=O)Nc1cc2c(-c3ccc4c(n3)C3(CCOC3)OC4)cn(C)c2cn1 (centres unmarked)
Result string: 2.69 h

====

Assay: Stability in human liver microsomes
Assay type: in vitro ADME
Conditions: pH 7.4, in vivo intrinsic hepatic clearance extrapolated
Would you kindly list CLint scaled for each of these molecules?
Just the number please, in mL/min/kg, no unit attached.

Query string: Any idea what CLint scaled was measured for CC(=O)Nc1cc2c(-c3ccc4c(n3)C3(CCOC3)OC4)cn(C)c2cn1 (centres unmarked) [Example 2] ?
Result string: 36

Query string: Quick one: COc1cc(-c2cn(C)c3cnc(NC(C)=O)cc23)nc2c1COC21CCOC1 (centres unmarked) [Example 1]
Result string: 15.1

====

I'd be grateful if you could share measured bioavailability for these entries.
Test: Pharmacokinetic evaluation in rats after intravenous injection and oral administration
Format: in vivo
Conditions: rat, plasma, oral bioavailability, PO 5 mg/kg
Write it as a number; the unit % goes unstated.

Query string: Would you mind telling me what bioavailability value was observed for CC(=O)Nc1cc2c(-c3ccc4c(n3)C3(CCOC3)OC4)cn(C)c2cn1 (stereo not drawn) [Example 2] ?
Result string: 165

Query string: // next record CC(=O)Nc1cc2c(-c3cc(OCCC(C)(C)O)c4c(n3)C3(CCOC3)OCC4)cn(C)c2cn1 (stereo not drawn) [Example 26]
Result string: 98.5

Query string: How about COc1cc(-c2cn(C)c3cnc(NC(C)=O)cc23)nc2c1COC21CCOC1 (stereo not drawn) [Example 1] ?
Result string: 107

Measured values drawn from patent US20230339977A1 for this set.
